target_desc: SALDan E175A (Alteromonas naphthalenivorans, UniProt F5Z5S7, E175A)
assay_summary: Kinetics assay of SALDan mutant E175A
pKi: −log10 of the molar value.
quantity_measured: pKi

[[record]]
molecule = "O=Cc1ccccc1O"
quantity_measured = "pKi"
recorded_result = 3.34


====

target_desc: UniProt:F5Z5S7
assay_summary: Kinetics assay of wild-type recombinant SALDan (NADH appearance at 340 nm)
Type: biochemical
pKi: −log10 of the molar value.
quantity_measured: pKi

[[record]]
compound = "O=Cc1ccccc1O [Salicylaldehyde]"
target_desc = "UniProt:F5Z5S7"
recorded_result = 3.42

[[record]]
compound = "O=Cc1ccccc1Cl [2-Chlorobenzaldehyde]"
target_desc = "UniProt:F5Z5S7"
recorded_result = 3.45

[[record]]
compound = "O=Cc1ccccc1 [Benzaldehyde]"
target_desc = "UniProt:F5Z5S7"
recorded_result = 3.25


====

target_desc: SALDan (Alteromonas naphthalenivorans)
assay_summary: Kinetics assay of wild-type recombinant SALDan (NADH appearance at 340 nm)
Format: biochemical
experimental_setup: wild-type; “—” means not observed; read-out: App Ki (substrate inhibition)
quantity_measured: Ki (µM)

[[record]]
compound = "O=Cc1ccc2ccccc2c1 [2-Naphthaldehyde]"
recorded_result = 249

[[record]]
compound = "O=Cc1ccc(Cl)cc1 [4-Chlorobenzaldehyde]"
recorded_result = 132

[[record]]
compound = "O=Cc1ccc([N+](=O)[O-])cc1 [4-Nitrobenzaldehyde]"
recorded_result = 266

[[record]]
compound = "O=Cc1cccc(Cl)c1 [3-Chlorobenzaldehyde]"
recorded_result = 124


====

target_desc: SALDan V153A (Alteromonas naphthalenivorans, UniProt F5Z5S7, V153A)
Sequence (F5Z5S7 1-483 V153A): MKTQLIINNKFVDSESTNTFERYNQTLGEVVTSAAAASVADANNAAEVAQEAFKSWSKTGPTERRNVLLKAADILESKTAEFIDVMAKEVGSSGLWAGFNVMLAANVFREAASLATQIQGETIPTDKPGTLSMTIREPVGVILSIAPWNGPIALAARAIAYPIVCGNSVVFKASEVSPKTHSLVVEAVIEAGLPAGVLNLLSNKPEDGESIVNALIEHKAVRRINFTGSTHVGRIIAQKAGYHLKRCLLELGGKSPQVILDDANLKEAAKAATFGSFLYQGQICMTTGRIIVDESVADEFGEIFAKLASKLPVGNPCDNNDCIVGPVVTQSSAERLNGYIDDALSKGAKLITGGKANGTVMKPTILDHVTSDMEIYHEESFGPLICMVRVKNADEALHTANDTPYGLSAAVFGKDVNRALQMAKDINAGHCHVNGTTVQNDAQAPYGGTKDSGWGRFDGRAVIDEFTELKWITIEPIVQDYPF
assay_summary: Kinetics assay of SALDan mutant V153A
quantity_measured: Ki (µM)

[[record]]
compound = "O=Cc1ccccc1O [Salicylaldehyde]"
quantity_measured = "Ki"
unit_string = "µM"
recorded_result = 428


The reported numbers originate from paper PMC5324060.
